Please respond with reported growth inhibition for every item in the list.
- assay_details: NCI Yeast Anticancer Drug Screen. Data for the mlh1 rad18 strain (AID 175)
- details: S. cerevisiae mlh1 rad18 strain growth inhibition, hits give high values; at 50.0 µM unless noted
The panel holds about 79,000 compounds, 15% with a hit somewhere; the sample as a whole holds those more often.
Answers are plain numbers, in %.

COC1OC(COC(c2ccccc2)(c2ccccc2)c2ccccc2)C(O)C(O)C1O (stereo unspecified)	41.1
Nc1ncnc2c1c(-c1ccc(Cl)cc1)cn2-c1ccc(I)cc1	7
COC(=O)c1ccccc1-c1ccccc1C(=O)O	-1.7
CC(=O)Nc1cccc(N=Cc2ccc(N(CCOS(C)(=O)=O)CCOS(C)(=O)=O)cc2C)c1	93.2
O=C1c2ccccc2C(=O)N1c1ccc(Cc2ccc(N3C(=O)c4ccccc4C3=O)cc2)cc1	14.7

Can you give me growth inhibition for all of these, one by one?
1. COc1ccc(NC(=O)C(C)Oc2ccc(OCC3CCCCC3)cc2)cc1 (stereo unspecified)
2. CCOC(=O)C1SC(=Nc2ccccc2)N=C1C (stereo unspecified)
3. O=S1(=O)C(c2ccccc2)=C1c1ccccc1
4. COC1CC(n2ccc(=O)[nH]c2=O)OC1CO (stereo unspecified)
5. CCOC(=O)NNC(=O)Nc1ccc(O[Si](C)(C)C)cc1
6. NC(=O)C1OCOC2C(CO)OCOC12 (stereo unspecified)

-29.6
-4.5
17.6
6.4
10.9
-6.15

* * *

So I've got a bunch of molecules here, and I need their growth inhibition values.
- assay_details: NCI Yeast Anticancer Drug Screen. Data for the cln2 rad14 strain (AID 165);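 also: 0% = growth equal to vehicle treated cultures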
- details: S. cerevisiae cln2 rad14 strain, hits give high values; at 50.0 µM unless noted
The panel holds about 79,000 compounds, 15% with a hit somewhere; the sample as a whole holds those more often.
One number for each entry, in %.

COC(=O)c1cc(-c2ccc(N)cc2)n2c(N)nnc2n1	-1.55
CN1C=C(C(N)=O)Cc2ccsc21	-8.95
N#Cc1ccc(-c2ccc(C#N)cc2)cc1	9.05
CC(C)(C)C(C(=O)O)C(=O)O	-7.4
CC(C)(C)CNCCO	-7.5

Give growth inhibition for all molecules that follow.
1. NC(=O)CSc1c2cc(O)ccc2nc2ccc(O)cc12
2. Cc1c2c(c(C)c3c1C(=O)c1cc4c(cc1C3=O)OCO4)OCO2
3. CCCOc1cc2c(cc1C(C)c1ccc(OC)c(C)c1)OCO2 (stereo unspecified)
4. Cc1cccc2c1/C(=C1/c3ccccc3C(=O)c3cccc(C)c31)c1ccccc1C2=O
5. CCCCCCCCN1CCOCCOCCN(CCCCCCCC)c2nc(Cl)nc(n2)NCCOCCOCCNc2nc(Cl)nc1n2
6. COc1ccc(NC(=O)CC(=O)n2nc(-c3ccccc3)c(N=Nc3ccccc3C(=O)O)c2-c2ccccc2)cc1

1. 37.5
2. -4.7
3. -87.7
4. 14.3
5. -9.7
6. 2.85

* * *

- assay_details: NCI Yeast Anticancer Drug Screen. Data for the mec2-1 strain (AID 157)
- details: S. cerevisiae mec2-1 strain, hits give high values; at 50.0 µM unless noted
The panel holds about 79,000 compounds, 15% with a hit somewhere; the sample as a whole holds those more often.
For each of the compounds below, state its growth inhibition.
Numbers only, in %.

NCCCCCCCCCCN	-5.1

Could I get growth inhibition for every one of these entries?
1. COc1ccc(/C=C(\C(=O)OCC(C)C)c2ccc(OC)c(OC)c2)cc1OC
2. OCCCCC1CCCc2ccccc21 (stereo unspecified)
3. COc1ccc(C2(O)OCC(COc3cc(C)c(Cl)c(C)c3)O2)cc1OC (stereo unspecified)
4. O=S(=O)(O)c1cc(O)c(S(=O)(=O)O)cc1O

1: -17.1; 2: 16.1; 3: 1.35; 4: 13.9
